Origin of values: patent US10072001B2

# TEST_TARGET: TBK1 (Homo sapiens (Human))
# ASSAY_COMMENT: TR-FRET kinase assay, TBK1
# CONDITION_CONTEXT: read-out: TBK1-IC50; full length recombinant TBK1 2.5 nM, 2x Km ATP, 1 μM peptide, 240 min at 25° C.; geometric mean of minimum four determinations
REPORTED_ENDPOINT: pIC50
Keep in mind that pIC50 stands for -log10 of concentration in molar terms.

Worked examples follow.
{"SMILES_RECORD": "N#Cc1cc(-c2ccnc3[nH]c(-c4ccc(N5CCOCC5)cc4)cc23)ccc1CN1CCOCC1", "pIC50": 7.98}
{"SMILES_RECORD": "CC(C)(C)OC(=O)N1CC[C@H](Oc2ccc(-c3ccnc4[nH]c(-c5ccc(N6CCOCC6)cc5)cc34)cc2C#N)C1", "pIC50": 6.94}
{"SMILES_RECORD": "N#Cc1cc(-c2ncnc3[nH]c(-c4ccc(N5CCOCC5)cc4)nc23)ccc1O[C@@H]1CCN(C(=O)CO)C1", "pIC50": 8.77}
{"SMILES_RECORD": "C[C@H](O)C(=O)N1CC[C@@H](Oc2ccc(-c3ncnc4[nH]c(-c5ccc(N6CCOCC6)cc5)nc34)cc2C#N)C1", "pIC50": 7.41}
{"SMILES_RECORD": "N#CCC(=O)N1CCC(Oc2ccc(-c3ccnc4[nH]c(-c5ccc(N6CCOCC6)cc5)cc34)cc2C#N)CC1", "pIC50": 8.03}

Ask | State its pIC50 for this compound: N#Cc1cc(-c2ccnc3[nH]c(-c4ccc(N5CCOCC5)cc4)cc23)ccc1O[C@@H]1CCN(CC(F)F)C1
Reply | 7.72

Ask | Identify measured pIC50 corresponding to N#Cc1cc(-c2ncnc3[nH]c(-c4ccc(=O)[nH]c4)cc23)ccc1OC1CCOCC1
Reply | 7.72

---

# TEST_TARGET: TBK1 (Homo sapiens (Human), UniProt Q9UHD2)
# Sequence (Q9UHD2 whole entry): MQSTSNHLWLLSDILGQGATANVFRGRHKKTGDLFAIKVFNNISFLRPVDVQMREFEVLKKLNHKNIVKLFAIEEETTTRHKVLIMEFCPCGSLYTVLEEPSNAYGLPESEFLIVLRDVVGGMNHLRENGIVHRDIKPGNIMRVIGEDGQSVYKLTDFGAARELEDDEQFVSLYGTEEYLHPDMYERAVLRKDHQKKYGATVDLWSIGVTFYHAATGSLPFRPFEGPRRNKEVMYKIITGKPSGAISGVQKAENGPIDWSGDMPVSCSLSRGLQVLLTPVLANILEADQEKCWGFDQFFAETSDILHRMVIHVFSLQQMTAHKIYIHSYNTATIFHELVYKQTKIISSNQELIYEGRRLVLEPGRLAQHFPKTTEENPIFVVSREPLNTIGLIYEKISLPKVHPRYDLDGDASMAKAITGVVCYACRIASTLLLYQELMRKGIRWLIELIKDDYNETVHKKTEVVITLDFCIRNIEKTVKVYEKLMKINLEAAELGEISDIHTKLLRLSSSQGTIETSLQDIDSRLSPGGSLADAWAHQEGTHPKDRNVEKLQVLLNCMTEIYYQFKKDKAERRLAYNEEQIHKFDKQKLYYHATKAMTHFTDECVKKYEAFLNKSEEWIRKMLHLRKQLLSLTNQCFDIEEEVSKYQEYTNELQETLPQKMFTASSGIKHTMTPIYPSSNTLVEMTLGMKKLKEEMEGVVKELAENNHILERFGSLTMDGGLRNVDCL
# ASSAY_COMMENT: TR-FRET kinase assay, TBK1
# CONDITION_CONTEXT: read-out: TBK1-IC50; full length recombinant TBK1 2.5 nM, 2x Km ATP, 1 μM peptide, 240 min at 25° C.; geometric mean of minimum four determinations
As shown below, each of these compounds has a reported IC50 value.

Examples from the recorded data:
{"COMPOUND": "N#Cc1cc(-c2ncnc3[nH]c(-c4ccc(CC(=O)O)cc4)cc23)ccc1OC1CCOCC1 [Example 168]", "IC50": "13.7 nM"}
{"COMPOUND": "N#Cc1cc(-c2ncnc3[nH]c(-c4ccc(N5CCOCC5)c(F)c4)cc23)ccc1OC1CCN(C(=O)CO)CC1 [Example 158]", "IC50": "1.02 nM"}
{"COMPOUND": "CC(C)(O)c1ccc(-c2nc3c(-c4ccc(OC5CCOCC5)c(C#N)c4)ncnc3[nH]2)cc1 [Example 228]", "IC50": "1.62 nM"}
{"COMPOUND": "N#Cc1cc(-c2ncnc3[nH]c(-c4ccc(N5CCOCC5)nc4)cc23)ccc1OC1CCOCC1 [Example 155]", "IC50": "4.39 nM"}
{"COMPOUND": "CN1CCN(c2ccc(-c3nc4c(-c5ccc(OC6CCN(C(=O)CO)CC6)c(C#N)c5)ncnc4[nH]3)cc2)CC1 [Example 251]", "IC50": "0.883 nM"}

Ask | Answer with reported IC50 of N#Cc1cc(-c2ccnc3[nH]c(-c4ccc(N5CCOCC5)cc4)nc23)ccc1OC1CCN(C(=O)CO)CC1 [Example 198]
Reply | 2.3 nM

Ask | // Input: N#Cc1cc(-c2ncnc3[nH]c(-c4ccc(OC(F)(F)F)cc4)cc23)ccc1OC1CCN(C(=O)CO)CC1 [Example 128] . Output its IC50 only.
Reply | 4.21 nM

Ask | Supply recorded IC50 for N#Cc1cc(-c2ncnc3[nH]c(Nc4cccc(N5CCOCC5)c4)nc23)ccc1OC1CCOCC1 [Example 194] here.
Reply | 298 nM

Ask | Provide only the value of recorded IC50 for N#Cc1cc(-c2cnnc3[nH]c(-c4ccc(N5CCOCC5)cc4)nc23)ccc1OC1CCOCC1 [Example 401]
Reply | > 1000 nM

Ask | Give IC50 for the following compound: N#CCC(=O)N1CC[C@@H](Oc2ccc(-c3ccnc4[nH]c(-c5ccc(N6CCOCC6)cc5)cc34)cc2C#N)C1 [Example 16]
Reply | 4.32 nM

Ask | Return IC50 for the following compound: N#Cc1cc(-c2ncnc3[nH]c(-c4ccc(N5CCN(C6COC6)CC5)cc4)cc23)ccc1OC1CCN(C(=O)CO)CC1 [Example 157]
Reply | 0.849 nM

Ask | Determine from records and report IC50 for N#Cc1cc(-c2ccnc3[nH]c(-c4cccnc4)cc23)ccc1OC1CCOCC1 [Example 7]
Reply | 11.8 nM

Ask | Name the recorded IC50 of the item N#Cc1cc(-c2ccnc3[nH]c(-c4ccc(N)nc4)cc23)ccc1OC1CCOCC1 [Example 11] in your answer.
Reply | 5.53 nM

Ask | Specify measured IC50 for CS(=O)(=O)c1ccc(-c2cc3c(-c4ccc(OC5CCOCC5)c(C#N)c4)ccnc3[nH]2)cc1 [Example 42] .
Reply | 3.75 nM

Ask | Output measured IC50 for this item: COc1cc(C#N)cc(-c2ccnc3[nH]c(-c4ccc(N5CCOCC5)cc4)cc23)c1 [Example 33]
Reply | 14.5 nM
